The binders listed here are annotated with their IC50, HIV inhibition assay.
# Tested on: CXC chemokine receptor type 4 (CXCR4) (human, UniProt P61073 1-352)
# Sequence (P61073 whole entry): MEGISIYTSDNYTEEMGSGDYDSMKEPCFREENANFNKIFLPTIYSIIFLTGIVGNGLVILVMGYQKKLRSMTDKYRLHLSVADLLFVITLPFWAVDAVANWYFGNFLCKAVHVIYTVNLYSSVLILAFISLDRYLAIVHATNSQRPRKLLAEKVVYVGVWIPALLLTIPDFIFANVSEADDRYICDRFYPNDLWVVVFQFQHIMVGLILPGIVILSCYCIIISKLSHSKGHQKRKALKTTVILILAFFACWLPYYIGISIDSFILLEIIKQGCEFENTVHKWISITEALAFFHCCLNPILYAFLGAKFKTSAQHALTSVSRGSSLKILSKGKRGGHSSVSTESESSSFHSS
# Experimental protocol: cell-based or functional assay
Where no end group is shown, it is not given here. Side-chain parts run from the residue outwards. [ ]: non-standard residue; d: D form. The star is where a group is joined. Palmitoyl = CCCCCCCCCCCCCCCC(=O)*; Glu = glutamate linker; Ole = not defined here
Result type: IC50, HIV inhibition assay

* ILRWSRKLPCVS (not fully specified (residue 7)) [JM#198] | > 150 nM
* ILRWSRKLP-NH2 [JM#114] | > 150 nM
* ILRWSRKVPSVS [JM#23] | > 150 nM
* MXRWSRKMPCVS (d-L at position 2) [JM#44] | > 150 nM
* [dL]MRWSRKMPCVS (ends and bridges not checked) [JM#36] | > 150 nM
* Ac-ILRWSRKLPCVS [JM#185] | > 150 nM
* M[dL]RWSRK(Palmitoyl)LP-NH2 (N-terminus assumed; SMILES CCCCCCCCCCCCCCCC(=O)NCCCC[C@H](NC(=O)[C@H](CCCNC(=N)N)NC(=O)[C@H](CO)NC(=O)[C@H](Cc1c[nH]c2ccccc12)NC(=O)[C@H](CCCNC(=N)N)NC(=O)[C@@H](CC(C)C)NC(=O)[C@@H](N)CCSC)C(=O)N[C@@H](CC(C)C)C(=O)N1CCC[C@H]1C(N)=O) [JM#179] | > 150 nM
* [dM]LRWSRKK-NH2 (not fully specified (residue 8)) [JM#197] | > 150 nM
* VLRWSRKLPCVS [JM#189] | > 150 nM
* [dL]MRWSRK(Palmitoyl)MPCVS [JM#176] | > 150 nM
* ILRWSRK(Ole)LPCVS (reading uncertain) [JM#183] | 5 to 10 nM
* [dL]LRWSRKMPCVS [JM#29] | > 150 nM
* MLRWSRKMPCVS [JM#27] | 50 to 150 nM
* ILRWSRK([Glu-Palmitoyl])MPCLS [JM#148] | > 150 nM
* IYRWSRKMPCLS [JM#146] | > 150 nM
* ILRWSRKLPSVS [JM#122] | 50 to 150 nM
* [dI]LRWSRK-NH2 (not fully specified (residue 7)) [JM#238] | 5 to 10 nM
* [dL]LRWSRK-NH2 (not fully specified (residue 7)) [JM#257] | 5 to 10 nM
* [dF]LRWSRKMPCVS [JM#30] | > 150 nM
* IIRWSRKMPCVS [JM#16] | > 150 nM
* XMRWSRKMPCVS (d-G at position 1 (so in the source)) [JM#38] | > 150 nM
* M[dL]RWSRK(Palmitoyl)-NH2 (N-terminus assumed; SMILES CCCCCCCCCCCCCCCC(=O)NCCCC[C@H](NC(=O)[C@H](CCCNC(=N)N)NC(=O)[C@H](CO)NC(=O)[C@H](Cc1c[nH]c2ccccc12)NC(=O)[C@H](CCCNC(=N)N)NC(=O)[C@@H](CC(C)C)NC(=O)[C@@H](N)CCSC)C(N)=O) [JM#181] | > 150 nM
* [dI]LRWSRK(Palmitoyl)LP-NH2 [JM#175] | > 150 nM
* Ac-SMRWSRKMPCVS [JM#32] | > 150 nM
